Notes on IC50 obtained with Sphingosine 1-phosphate receptor 2 (Homo sapiens, UniProt O95136).
Sequence (O95136 whole entry): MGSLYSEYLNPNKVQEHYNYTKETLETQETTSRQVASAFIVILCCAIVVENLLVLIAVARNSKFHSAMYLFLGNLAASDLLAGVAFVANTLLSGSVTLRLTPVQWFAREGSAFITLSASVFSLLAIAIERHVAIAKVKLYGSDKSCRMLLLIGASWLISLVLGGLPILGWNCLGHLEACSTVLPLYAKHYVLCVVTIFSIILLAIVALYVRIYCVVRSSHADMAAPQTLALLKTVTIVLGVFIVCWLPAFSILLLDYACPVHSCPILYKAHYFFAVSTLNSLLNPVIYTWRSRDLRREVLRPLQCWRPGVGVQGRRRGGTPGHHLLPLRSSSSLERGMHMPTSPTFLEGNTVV
Note: unit nM is implicit; provide only the numeric part.

Request: Fill in the blank: the reported IC50 of `COc1cc(C)c(NC(=O)c2ccc(-c3cc(Cl)ccc3Cl)o2)c(C)c1` is ____.
Result: 2800

Request: Thanks! And `Cc1cc(O)cc(C)c1NC(=O)c1ccc(-c2cc(Cl)ccc2Cl)o1` ?
Result: 2800

Request: Can you check `Cc1cc(CN)cc(C)c1NC(=O)c1ccc(-c2cc(Cl)ccc2Cl)o1` next?
Result: 3900

Request: Now give it for `Cc1ccsc1-c1ccc(C(=O)Nc2c(C)cccc2C)o1` too.
Result: 2600

---

molecular target: UniProt O95977; test: Antagonist activity at S1P4 receptor in human U2OS cells expressing EDG6-linked GAL4-VP16 transcription factor via TEV protease site/beta-arrestin/TEV protease fusion protein and beta-lactamase reporter gene assessed as beta-lactamase expression by FRET assay
pIC50: −log10 of the molar value.
Param threshold (7) applies to pIC50; output 1 when value >= threshold, -1 when value < threshold.

Request: // inclusive: pIC50 at least 7? input: `Cc1cccc(C)c1NC(=O)c1ccc(-c2ccc(Cl)s2)o1`
Result: -1

Request: What do we get for `CC(=O)OCc1cc(C)c(NC(=O)c2ccc(-c3cc(Cl)ccc3Cl)o2)c(C)c1` ?
Result: 1

Request: Please give the result for `Cc1cc(CN(C)C)cc(C)c1NC(=O)c1ccc(-c2cc(Cl)ccc2Cl)o1` too.
Result: -1

Request: Try this molecule next: `Cc1cccc(C)c1NC(=O)c1ccc(-c2ccsc2)o1`
Result: -1

Request: Check `Cc1ccsc1-c1ccc(C(=O)Nc2c(C)cc(O)cc2C)o1` too.
Result: 1

Request: // query: `Cc1cccc(C)c1NC(=O)c1ccc(-c2cc(F)ccc2F)o1`
Result: -1

Request: `Cc1cccc(C)c1N(C)C(=O)c1ccc(-c2ccccc2Cl)o1` , same question.
Result: -1

Request: Follow-up item: `COc1ccc(NC(=O)c2ccc(-c3cc(Cl)ccc3Cl)o2)c(C)c1`
Result: -1

Request: Proceed to `Cc1cccc(C)c1NC(=O)c1ccc(-c2cccc(Cl)c2)o1`
Result: -1

Request: Same question for `Cc1cc(O)cc(C)c1NC(=O)c1ccc(-c2cc(Cl)ccc2Cl)o1` please.
Result: 1

Request: Same question for `Cc1cccc(Cl)c1NC(=O)c1ccc(-c2cc(Cl)ccc2Cl)o1` please.
Result: -1

Request: Check `CCc1cccc(C)c1NC(=O)c1ccc(-c2cc(Cl)ccc2Cl)o1` too.
Result: 1

Request: Now give it for `Cc1cscc1-c1ccc(C(=O)Nc2c(C)cccc2C)o1` too.
Result: -1

Request: // query: `Cc1ccsc1-c1ccc(C(=O)Nc2c(C)cc(CO)cc2C)o1`
Result: 1

Request: Same lookup for `Cc1cc(OCCO)cc(C)c1NC(=O)c1ccc(-c2cc(Cl)ccc2Cl)o1` , please.
Result: 1

---

I'd be grateful if you could share measured pIC50 for these entries.
target: Sphingosine 1-phosphate receptor 4 (Homo sapiens, UniProt O95977); assay: Antagonist activity at S1P4 receptor in human U2OS cells expressing EDG6-linked GAL4-VP16 transcription factor via TEV protease site/beta-arrestin/TEV protease fusion protein and beta-lactamase reporter gene assessed as beta-lactamase expression by FRET assay
Sequence (O95977 whole entry, the tested form may be a part): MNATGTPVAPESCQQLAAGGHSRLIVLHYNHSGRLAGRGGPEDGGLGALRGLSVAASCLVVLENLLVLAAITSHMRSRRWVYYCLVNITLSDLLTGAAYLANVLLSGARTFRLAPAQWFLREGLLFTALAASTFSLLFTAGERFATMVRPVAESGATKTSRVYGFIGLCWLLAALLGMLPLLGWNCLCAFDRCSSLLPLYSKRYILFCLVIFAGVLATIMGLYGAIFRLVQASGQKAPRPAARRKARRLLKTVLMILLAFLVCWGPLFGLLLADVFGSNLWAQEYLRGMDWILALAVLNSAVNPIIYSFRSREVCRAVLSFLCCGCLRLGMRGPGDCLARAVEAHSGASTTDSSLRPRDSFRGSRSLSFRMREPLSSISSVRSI
Keep in mind that pIC50 stands for -log10 of concentration in molar terms.

Request: Which measured pIC50 belongs to `CC(=O)NCc1cc(C)c(NC(=O)c2ccc(-c3cc(Cl)ccc3Cl)o2)c(C)c1` , tested on Sphingosine 1-phosphate receptor 4 (Homo sapiens, UniProt O95977)?
Result: 7.03

Request: # repeat for `Cc1ccc(C)c(-c2ccc(C(=O)Nc3c(C)cccc3C)o2)c1`
Result: 7.19

Request: Further, for `Cc1cccc(C)c1NC(=O)c1ccc(-c2cc(Cl)ccc2Cl)o1` ?
Result: 7.11

Request: For `COc1cc(C)c(NC(=O)c2ccc(-c3cc(Cl)ccc3Cl)o2)c(C)c1` then?
Result: 7.10

Request: Queued: `CCc1cccc(CC)c1NC(=O)c1ccc(-c2cc(Cl)ccc2Cl)o1`
Result: 7.05

Request: Also `Cc1cccc(C)c1N(C)C(=O)c1ccc(-c2ccco2)o1` , if possible.
Result: 6.89

Request: `Cc1cc(C)c(NC(=O)c2ccc(-c3cc(Cl)ccc3Cl)o2)c(C)c1` ?
Result: 7.20

Request: Same lookup for `Cc1cccc(C)c1NC(=O)c1ccc(-c2cccs2)o1` , please.
Result: 6.93

Each recorded value in this set is attributed to ChEMBL document CHEMBL1777724.
